Catalogue of inhibition readings, one per entry.
# assay system: NAD-dependent protein deacetylase sirtuin-2 (Homo sapiens) (UniProt Q8IXJ6)
# Sequence (Q8IXJ6 whole entry): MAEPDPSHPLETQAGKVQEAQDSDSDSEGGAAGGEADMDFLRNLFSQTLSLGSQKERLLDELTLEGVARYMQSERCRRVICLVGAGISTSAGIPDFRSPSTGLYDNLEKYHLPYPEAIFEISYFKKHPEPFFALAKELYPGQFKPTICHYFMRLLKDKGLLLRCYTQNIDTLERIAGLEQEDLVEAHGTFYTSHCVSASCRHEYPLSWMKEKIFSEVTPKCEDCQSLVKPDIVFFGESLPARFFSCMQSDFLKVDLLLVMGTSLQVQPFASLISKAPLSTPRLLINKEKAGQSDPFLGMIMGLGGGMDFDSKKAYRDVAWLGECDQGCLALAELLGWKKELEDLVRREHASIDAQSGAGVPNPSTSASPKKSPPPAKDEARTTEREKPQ
# procedure summary: Inhibition of SIRT2 (unknown origin) at 50 uM relative to control
endpoint: inhibition (%)

{"test smiles": "Oc1ccc(/C=C/c2cc(O)cc(O)c2)cc1", "endpoint unit": "%", "recorded measurement": 83}
{"test smiles": "COc1ccc(OC)c(CN2CCN(Cc3ccc4oc5c(Cl)cccc5c(=O)c4c3)CC2)c1", "endpoint unit": "%", "recorded measurement": 55.9}
{"test smiles": "COc1ccccc1CNCc1ccc2oc3c(Cl)cccc3c(=O)c2c1", "endpoint unit": "%", "recorded measurement": 82.1}
{"test smiles": "COc1ccccc1CCNCc1ccc2oc3c(Cl)cccc3c(=O)c2c1", "endpoint unit": "%", "recorded measurement": 93.2}
{"test smiles": "COc1ccc(CNCc2ccc3oc4c(Cl)cccc4c(=O)c3c2)cc1OC", "endpoint unit": "%", "recorded measurement": 82.7}
{"test smiles": "COc1cccc(N2CCN(Cc3ccc4oc5c(Cl)cccc5c(=O)c4c3)CC2)c1", "endpoint unit": "%", "recorded measurement": 48.5}
